# Test System: RPMI 8866 cells (Homo sapiens, UniProt P13612+P26010)
# Sequence (P13612 34-1032): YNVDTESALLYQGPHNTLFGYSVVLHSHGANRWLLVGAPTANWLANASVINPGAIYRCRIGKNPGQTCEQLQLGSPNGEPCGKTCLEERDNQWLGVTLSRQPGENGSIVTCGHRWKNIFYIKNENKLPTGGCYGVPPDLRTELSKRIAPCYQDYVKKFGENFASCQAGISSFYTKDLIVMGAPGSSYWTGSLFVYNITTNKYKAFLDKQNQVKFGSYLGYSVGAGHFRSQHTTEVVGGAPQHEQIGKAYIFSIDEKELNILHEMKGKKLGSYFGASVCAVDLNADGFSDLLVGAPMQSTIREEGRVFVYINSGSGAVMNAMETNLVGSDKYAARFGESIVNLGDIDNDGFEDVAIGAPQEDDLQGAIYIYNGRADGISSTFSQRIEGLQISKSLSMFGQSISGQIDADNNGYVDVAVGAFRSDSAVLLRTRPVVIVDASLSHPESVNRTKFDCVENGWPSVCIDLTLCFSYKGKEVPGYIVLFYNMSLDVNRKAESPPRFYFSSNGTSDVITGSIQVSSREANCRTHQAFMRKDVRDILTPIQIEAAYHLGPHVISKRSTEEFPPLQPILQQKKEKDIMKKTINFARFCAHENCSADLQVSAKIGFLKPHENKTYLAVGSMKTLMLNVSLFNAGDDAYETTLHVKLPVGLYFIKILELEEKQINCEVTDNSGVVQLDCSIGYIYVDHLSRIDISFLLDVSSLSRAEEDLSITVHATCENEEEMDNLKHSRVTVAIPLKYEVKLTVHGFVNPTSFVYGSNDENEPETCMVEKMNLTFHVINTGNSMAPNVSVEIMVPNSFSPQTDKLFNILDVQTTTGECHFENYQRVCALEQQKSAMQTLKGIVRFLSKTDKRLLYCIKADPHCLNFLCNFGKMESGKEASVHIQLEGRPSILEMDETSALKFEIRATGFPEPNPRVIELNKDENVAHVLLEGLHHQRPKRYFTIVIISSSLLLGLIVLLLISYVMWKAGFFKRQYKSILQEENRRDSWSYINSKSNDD
# Sequence (P26010 20-798): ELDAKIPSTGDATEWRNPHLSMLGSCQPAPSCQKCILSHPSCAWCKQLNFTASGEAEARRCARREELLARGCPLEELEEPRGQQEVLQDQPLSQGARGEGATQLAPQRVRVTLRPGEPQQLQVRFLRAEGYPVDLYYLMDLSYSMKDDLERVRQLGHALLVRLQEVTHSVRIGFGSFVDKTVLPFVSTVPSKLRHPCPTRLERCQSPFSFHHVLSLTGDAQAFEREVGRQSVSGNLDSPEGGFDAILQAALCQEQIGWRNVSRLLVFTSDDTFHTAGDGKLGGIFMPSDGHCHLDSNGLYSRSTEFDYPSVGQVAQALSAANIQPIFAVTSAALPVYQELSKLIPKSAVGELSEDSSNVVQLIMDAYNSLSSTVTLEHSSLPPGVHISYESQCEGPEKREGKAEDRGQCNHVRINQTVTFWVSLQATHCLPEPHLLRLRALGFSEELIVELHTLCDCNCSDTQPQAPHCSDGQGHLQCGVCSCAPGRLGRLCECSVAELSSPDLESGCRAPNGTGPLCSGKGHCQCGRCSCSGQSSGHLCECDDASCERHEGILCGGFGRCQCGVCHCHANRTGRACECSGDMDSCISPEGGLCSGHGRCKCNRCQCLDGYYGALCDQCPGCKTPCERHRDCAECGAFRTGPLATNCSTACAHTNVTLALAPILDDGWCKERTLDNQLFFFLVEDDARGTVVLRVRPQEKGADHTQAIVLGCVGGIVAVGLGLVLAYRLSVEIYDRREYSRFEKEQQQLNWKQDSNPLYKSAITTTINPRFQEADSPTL
# Measurement Notes: α4β7-MAdCAM Cell Adhesion Assay
# Format: cell-based
# Particulars: thioether peptide dimers, Table 7; read-out: Cell-Adhesion A4B7
Where a SMILES comes first, the peptide text is derived from it.
Parameter: IC50

Prompt: Requested read-out IC50, target or system RPMI 8866 cells (Homo sapiens, UniProt P13612+P26010), entry CC(C)C[C@@H]1NC(=O)[C@H]([C@@H](C)O)NC(=O)[C@H](CC(=O)O)NC(=O)[C@H](CO)NC(=O)[C@H](CCCNC(=N)N)N(C)C(=O)c2ccccc2CSC[C@@H](C(=O)N[C@H](Cc2ccccc2)C(=O)N[C@@H](CCC(=O)O)C(=O)N[C@H](CCCCN)C(N)=O)NC1=O [compound 186] (HELM PEPTIDE1{[meR].S.D.T.L.C.[dF].E.[dK].[am]}|CHEM1{[O=C(c1ccccc1C[*:2])[*:1]]}$PEPTIDE1,CHEM1,1:R1-1:R1|PEPTIDE1,CHEM1,6:R3-1:R2$$$V2.0)
Completion: 0.025 to 0.1 µM

====

# Test System: α4β1 (Homo sapiens, UniProt P05556+P13612)
# Construct: purchased R&D Systems 5668-A4
# Sequence (P13612 34-977 limits assumed): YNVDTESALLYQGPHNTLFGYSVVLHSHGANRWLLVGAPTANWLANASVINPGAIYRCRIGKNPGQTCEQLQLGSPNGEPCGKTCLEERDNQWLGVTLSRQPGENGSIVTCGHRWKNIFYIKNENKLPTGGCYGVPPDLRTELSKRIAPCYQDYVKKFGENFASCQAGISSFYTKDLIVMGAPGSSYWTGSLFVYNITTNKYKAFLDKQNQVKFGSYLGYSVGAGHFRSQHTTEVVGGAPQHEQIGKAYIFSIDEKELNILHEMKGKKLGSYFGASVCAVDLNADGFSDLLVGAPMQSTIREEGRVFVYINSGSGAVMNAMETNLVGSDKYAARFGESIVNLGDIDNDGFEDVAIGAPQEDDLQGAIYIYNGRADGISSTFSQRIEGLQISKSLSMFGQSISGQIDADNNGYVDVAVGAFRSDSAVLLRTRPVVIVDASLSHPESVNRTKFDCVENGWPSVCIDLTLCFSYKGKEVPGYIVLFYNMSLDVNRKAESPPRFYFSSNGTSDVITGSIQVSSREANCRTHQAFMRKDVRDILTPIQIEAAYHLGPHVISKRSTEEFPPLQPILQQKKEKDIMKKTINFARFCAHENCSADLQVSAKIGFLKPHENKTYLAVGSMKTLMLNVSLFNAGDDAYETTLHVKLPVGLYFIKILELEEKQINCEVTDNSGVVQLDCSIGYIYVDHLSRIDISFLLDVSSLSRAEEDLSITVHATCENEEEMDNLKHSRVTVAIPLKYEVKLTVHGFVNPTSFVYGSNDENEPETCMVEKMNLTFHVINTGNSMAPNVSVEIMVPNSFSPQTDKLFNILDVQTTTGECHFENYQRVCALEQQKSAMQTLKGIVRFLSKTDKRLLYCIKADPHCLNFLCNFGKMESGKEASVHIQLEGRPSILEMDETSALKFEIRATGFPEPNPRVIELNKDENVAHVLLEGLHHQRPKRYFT
# Sequence (P05556 21-728 limits assumed): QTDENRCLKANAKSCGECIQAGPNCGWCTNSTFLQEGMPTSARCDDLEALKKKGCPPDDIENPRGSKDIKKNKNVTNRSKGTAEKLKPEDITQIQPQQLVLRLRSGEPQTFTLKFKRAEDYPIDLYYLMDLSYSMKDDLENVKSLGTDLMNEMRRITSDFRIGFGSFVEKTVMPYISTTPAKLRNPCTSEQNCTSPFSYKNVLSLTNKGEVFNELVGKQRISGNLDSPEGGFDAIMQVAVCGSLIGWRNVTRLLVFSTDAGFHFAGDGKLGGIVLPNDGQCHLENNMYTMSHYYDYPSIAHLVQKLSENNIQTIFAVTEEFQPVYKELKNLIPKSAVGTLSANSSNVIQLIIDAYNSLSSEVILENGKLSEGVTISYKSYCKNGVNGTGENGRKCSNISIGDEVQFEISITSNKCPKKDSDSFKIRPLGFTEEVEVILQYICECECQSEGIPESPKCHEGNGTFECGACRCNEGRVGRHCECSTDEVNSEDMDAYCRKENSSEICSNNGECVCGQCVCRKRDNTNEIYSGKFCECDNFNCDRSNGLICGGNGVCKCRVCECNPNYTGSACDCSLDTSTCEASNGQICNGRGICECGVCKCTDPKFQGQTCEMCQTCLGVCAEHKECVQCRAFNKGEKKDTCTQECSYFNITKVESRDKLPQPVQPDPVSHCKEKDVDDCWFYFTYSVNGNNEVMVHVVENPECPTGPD
# Measurement Notes: α4β1-VCAM Competition ELISA
# Assay type: binding
# Particulars: thioether peptide dimers, Table 7; read-out: ELISA A4B1
# Description: α4β1-VCAM Competition ELISA A Nunc MaxiSorp plate was coated with rh VCAM-1/CD106 Fc chimera (R&D #862-VC) at 400 ng/well in 50 ul per well in 1×PBS and incubated overnight at 4° C. The solution was removed by shaking and then blocked with 250 ul of 1% BSA in 1×PBS per well. The wells were then incubated at room temperature for 1 hr with shaking. […] The reaction was stepped with 2N H2SO4 and absorbance was read at 450 nm.
Where a SMILES comes first, the peptide text is derived from it.
Field: IC50. Provide a value for each of the compounds that follow.

Prompt: Reported IC50, compound CC(C)C[C@@H]1NC(=O)[C@H]([C@@H](C)O)NC(=O)[C@H](CC(=O)O)NC(=O)[C@H](CO)NC(=O)[C@H](CCCNC(=N)N)N(C)C(=O)c2ccccc2CSC(C)(C)[C@@H](C(=O)N[C@@H](Cc2ccc(O)cc2)C(=O)N[C@H](CCC(=O)O)C(=O)N[C@H](CCCCN)C(N)=O)NC1=O [compound 169] (HELM PEPTIDE1{[meR].S.D.T.L.[Pen].Y.[dE].[dK].[am]}|CHEM1{[O=C(c1ccccc1C[*:2])[*:1]]}$PEPTIDE1,CHEM1,1:R1-1:R1|PEPTIDE1,CHEM1,6:R3-1:R2$$$V2.0) : ____
Completion: 100 to 1000 nM

Prompt: Reported IC50, compound CC(C)C[C@@H]1NC(=O)[C@H]([C@@H](C)O)NC(=O)[C@H](CC(=O)O)NC(=O)[C@H](CO)NC(=O)[C@H](CCCNC(=N)N)N(C)C(=O)C(C)SC[C@@H](C(=O)N[C@@H](Cc2c[nH]c3ccccc23)C(=O)N[C@H](CCCCN)C(N)=O)NC1=O (single isomer, unassigned) : ____
Completion: > 1000 nM

Prompt: Reported IC50, compound CC(C)C[C@@H]1NC(=O)[C@H]([C@@H](C)O)NC(=O)[C@H](CC(=O)O)NC(=O)[C@H](CO)NC(=O)[C@H](CCCNC(=N)N)N(C)C(=O)c2ccccc2CSC(C)(C)[C@@H](C(=O)N[C@@H](Cc2c[nH]c3ccccc23)C(=O)N[C@H](CCC(=O)O)C(=O)N[C@@H](CCC(=O)O)C(=O)N[C@H](CCCCN)C(N)=O)NC1=O [compound 194] (HELM PEPTIDE1{[meR].S.D.T.L.[Pen].W.[dE].E.[dK].[am]}|CHEM1{[O=C(c1ccccc1C[*:2])[*:1]]}$PEPTIDE1,CHEM1,1:R1-1:R1|PEPTIDE1,CHEM1,6:R3-1:R2$$$V2.0) : ____
Completion: 100 to 1000 nM

Prompt: Reported IC50, compound CC(C)C[C@@H]1NC(=O)[C@H]([C@@H](C)O)NC(=O)[C@H](CC(=O)O)NC(=O)[C@H](CO)NC(=O)[C@H](CCCNC(=N)N)N(C)C(=O)CSC[C@@H](C(=O)N[C@@H](Cc2c[nH]c3ccccc23)C(=O)N[C@H](CCCCNC(=O)COCC(=O)NCCCC[C@@H](NC(=O)[C@H](Cc2c[nH]c3ccccc23)NC(=O)[C@@H]2CSCC(=O)N(C)[C@@H](CCCNC(=N)N)C(=O)N[C@@H](CO)C(=O)N[C@@H](CC(=O)O)C(=O)N[C@@H]([C@@H](C)O)C(=O)N[C@@H](CC(C)C)C(=O)N2)C(N)=O)C(N)=O)NC1=O : ____
Completion: > 1000 nM

Prompt: Reported IC50, compound CC(C)C[C@@H]1NC(=O)[C@H]([C@@H](C)O)NC(=O)[C@H](CC(=O)O)NC(=O)[C@H](CO)NC(=O)[C@H](CCCNC(=N)N)N(C)C(=O)c2ccccc2CSC(C)(C)[C@@H](C(=O)N[C@@H](Cc2ccc(O)cc2)C(=O)N[C@@H](CCC(=O)O)C(=O)N[C@H](CCCCN)C(N)=O)NC1=O [compound 168] (HELM PEPTIDE1{[meR].S.D.T.L.[Pen].Y.E.[dK].[am]}|CHEM1{[O=C(c1ccccc1C[*:2])[*:1]]}$PEPTIDE1,CHEM1,1:R1-1:R1|PEPTIDE1,CHEM1,6:R3-1:R2$$$V2.0) : ____
Completion: 25 to 100 nM

Prompt: Reported IC50, compound CC(C)C[C@@H]1NC(=O)[C@H]([C@@H](C)O)NC(=O)[C@H](CC(=O)O)NC(=O)[C@H](CO)NC(=O)[C@H](CCCNC(=N)N)N(C)C(=O)c2ccccc2CSC(C)(C)[C@@H](C(=O)N[C@@H](Cc2ccccc2)C(=O)N[C@@H](CCC(=O)O)CC(=O)N[C@H](CCCCN)C(N)=O)NC1=O [compound 164] (HELM PEPTIDE1{[meR].S.D.T.L.[Pen].F.[O=C(O)CC[C@@H](CC(=O)[*:2])N[*:1]].[dK].[am]}|CHEM1{[O=C(c1ccccc1C[*:2])[*:1]]}$PEPTIDE1,CHEM1,1:R1-1:R1|PEPTIDE1,CHEM1,6:R3-1:R2$$$V2.0) : ____
Completion: 25 to 100 nM

Prompt: Reported IC50, compound CC(C)C[C@@H]1NC(=O)[C@H]([C@@H](C)O)NC(=O)[C@H](CC(=O)O)NC(=O)[C@H](CO)NC(=O)[C@H](CCCNC(=N)N)N(C)C(=O)c2ccccc2CSC(C)(C)[C@@H](C(=O)N[C@@H](Cc2c[nH]c3ccccc23)C(=O)N[C@@H](CCC(=O)O)C(=O)N(C)[C@H](CCCCN)C(N)=O)NC1=O [compound 152] (HELM PEPTIDE1{[meR].S.D.T.L.[Pen].W.E.[CN([C@H](CCCCN)C(=O)[*:2])[*:1]].[am]}|CHEM1{[O=C(c1ccccc1C[*:2])[*:1]]}$PEPTIDE1,CHEM1,1:R1-1:R1|PEPTIDE1,CHEM1,6:R3-1:R2$$$V2.0) : ____
Completion: 25 to 100 nM

Prompt: Reported IC50, compound CC(C)C[C@@H]1NC(=O)[C@H]([C@@H](C)O)NC(=O)[C@H](CC(=O)O)NC(=O)[C@H](CO)NC(=O)[C@H](CCCNC(=N)N)N(C)C(=O)c2ccccc2CSC(C)(C)[C@@H](C(=O)N[C@@H](Cc2ccc3ccccc3c2)C(=O)N[C@@H](CCC(=O)O)CC(=O)N[C@H](CCCCN)C(N)=O)NC1=O : ____
Completion: 25 to 100 nM
